Assay: qHTS assay to identify small molecule antagonists of the thyroid receptor (TR) signaling pathway (AID 743065); further: nearly all actives have a fitted effect of over 55% in size
Settings: GH3.TRE-Luc, T3-stimulated luciferase inhibition, 23.5 h; series mostly up to 70.3 µM
Description: U.S. Tox21 Program National Center for Advancing Translational Sciences [NCATS] NIH Chemical Genomics Center [NCGC] U.S. Environmental Protection Agency [EPA] National Institutes of Environmental Health Sciences [NIEHS] National Toxicology Program [NTP] U.S. Food and Drug Administration [FDA] Tox21 Assay Overview: Thyroid receptor (TR), a nuclear hormone receptor, plays an important role in development, proliferation, differentiation, metabolism, brain function, and cardiovascular system. […]
Records with an inconclusive call do not appear. Activity calls are given as the source filed them. The call rests on the fitted dose curve; in most records, active means well fitted inhibition curve with a large enough effect in the repeat runs; inconclusive means weak or mixed curves; inactive means no such curve, though single readings can be large or run the other way.
Outcomes: active, inactive

- SMILES ENTRY: "S=C(S)N1CCNCC1"
  QUALITATIVE LABEL: "inactive"
- SMILES ENTRY: "C[C@]12CC[C@H]3[C@@H](CCC4=C(O)C(=O)CC[C@@H]43)[C@@H]1CC[C@@H]2OC(=O)CCC1CCCC1"
  QUALITATIVE LABEL: "inactive"
- SMILES ENTRY: "Oc1c(Cl)cc(Cl)cc1Cl"
  QUALITATIVE LABEL: "inactive"
- SMILES ENTRY: "C[C@]12CC[C@H]3[C@@H](CCC4=C(Cl)C(=O)CC[C@@]43C)[C@@H]1CC[C@@H]2O"
  QUALITATIVE LABEL: "active"
- SMILES ENTRY: "CC(=O)Oc1ccc2c3c1O[C@H]1[C@@H](OC(C)=O)C=C[C@H]4[C@@H](C2)N(C)CC[C@@]341"
  QUALITATIVE LABEL: "inactive"
- SMILES ENTRY: "CO[C@H]1[C@@H](O)C[C@H](O[C@H]2[C@@H](O)C[C@H](O[C@H]3[C@@H](O)C[C@H](O[C@H]4CC[C@@]5(C)[C@H](CC[C@@H]6[C@@H]5C[C@@H](O)[C@]5(C)[C@@H](C7=CC(=O)OC7)CC[C@]65O)C4)O[C@@H]3C)O[C@@H]2C)O[C@@H]1C"
  QUALITATIVE LABEL: "inactive"
- SMILES ENTRY: "CCCCCCC(=O)O[C@H]1CC[C@H]2[C@@H]3CC[C@H]4CC(=O)C=C(C)[C@]4(C)[C@H]3CC[C@]12C"
  QUALITATIVE LABEL: "inactive"
- SMILES ENTRY: "[2H]C([2H])([2H])[C@H](N)Cc1ccccc1"
  QUALITATIVE LABEL: "inactive"
- SMILES ENTRY: "OCC(c1ccc(Cl)cc1)c1ccc(Cl)cc1"
  QUALITATIVE LABEL: "active"
- SMILES ENTRY: "O=c1[nH]cc(N(CCCl)CCCl)c(=O)[nH]1"
  QUALITATIVE LABEL: "inactive"
- SMILES ENTRY: "CCCCc1ccc(C(=O)O)nc1"
  QUALITATIVE LABEL: "inactive"
- SMILES ENTRY: "C[C@H]1[C@H]2Cc3ccc(O)cc3[C@]1(C)CCN2CCc1ccccc1"
  QUALITATIVE LABEL: "active"
- SMILES ENTRY: "O=C(Nc1ccccc1-c1ccc(Cl)cc1)c1cccnc1Cl"
  QUALITATIVE LABEL: "active"
